Attribution: patent US20250195483A1

- SYSTEM UNDER TEST: APOL1 (Homo sapiens, UniProt O14791)
- ASSAY SUMMARY: MultiTox-Fluor Multiplex Cytotoxicity Assay, tet-inducible APOL1 T-REx-HEK293 cells (G0, G1 or G2 clone not specified for Table 20)
- ASSAY SETUP: tet-induced, 24 hours with compound, ratio of dead to live cells, read-out: IP50 (i.e., IC50 for cell proliferation)
pIC50: −log10 of the molar value.
EXPERIMENTAL ENDPOINT: pIC50

Exercise: Which pIC50 reading was recorded for the compound CS(=O)(=O)CCn1cc(CN2CCC3(CC2)C(=O)Nc2c(Cl)cc(Cl)cc23)cn1 ?
Key: 6.30 to 7.30

Exercise: Try this compound too: CN1C(=O)C2(CCN(Cc3cn[nH]c3)CC2)c2cc(Cl)ccc21
Key: 6.30 to 7.30

Exercise: Try this compound too: CC(=O)Nc1ccc(CN2CCC3(CC2)C(=O)Nc2ccc(Cl)cc23)cc1
Key: 6.30 to 7.30

Exercise: Try this compound too: CN1C(=O)C2(CCN(Cc3cnn(CCS(N)(=O)=O)c3)CC2)c2ccccc21
Key: ≤ 6.30
